target: Retinoic acid receptor RXR-alpha (Homo sapiens) (UniProt P19793); assay: TOX21_TR_RXR_BLA_Antagonist_Followup_ratio: Tox21 Thyroid Hormone Receptor beta Retinoid X Receptor alpha (RXRa) Antagonism Beta-lactamase (BLA) Follow-Up Assay, Ratio (AID 2283972)
Sequence (P19793 whole entry, looked up): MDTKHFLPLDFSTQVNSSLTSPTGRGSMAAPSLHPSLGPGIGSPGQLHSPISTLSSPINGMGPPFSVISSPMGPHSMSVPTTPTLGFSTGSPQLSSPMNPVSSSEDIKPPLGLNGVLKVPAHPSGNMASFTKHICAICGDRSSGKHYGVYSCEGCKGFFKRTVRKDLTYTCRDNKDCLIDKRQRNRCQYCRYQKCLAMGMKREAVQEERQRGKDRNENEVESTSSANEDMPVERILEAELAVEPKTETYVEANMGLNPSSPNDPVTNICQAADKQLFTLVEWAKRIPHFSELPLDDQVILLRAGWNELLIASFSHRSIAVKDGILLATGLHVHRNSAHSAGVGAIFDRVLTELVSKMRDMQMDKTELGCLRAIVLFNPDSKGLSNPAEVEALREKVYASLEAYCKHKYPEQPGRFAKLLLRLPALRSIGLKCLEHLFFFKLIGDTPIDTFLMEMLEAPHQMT
Results filed as inconclusive are left out. The source made the active and inactive calls. How the source made its calls: active means hit-call score of the fitted dose curve at least 0.9, where 1 is the maximum; inconclusive means response in the unintended direction; inactive means score below 0.9.
Labels: label 1 = active, label 0 = inactive

[
  {
    "compound": "CCCOc1ccc2nc(NC(=O)OC)sc2c1",
    "target-desc": "Retinoic acid receptor RXR-alpha (Homo sapiens) (UniProt P19793)",
    "group": "label 0"
  },
  {
    "compound": "C[n+]1c2cc(N)ccc2cc2ccc(N)cc21 (tested in a mixture with another compound)",
    "target-desc": "Retinoic acid receptor RXR-alpha (Homo sapiens) (UniProt P19793)",
    "group": "label 1"
  },
  {
    "compound": "Cc1cc(Nc2ccccc2C(=O)O)ccc1Cl",
    "target-desc": "Retinoic acid receptor RXR-alpha (Homo sapiens) (UniProt P19793)",
    "group": "label 0"
  },
  {
    "compound": "Cc1oc(C)c(C(=O)Nc2ccccc2)c1C",
    "target-desc": "Retinoic acid receptor RXR-alpha (Homo sapiens) (UniProt P19793)",
    "group": "label 0"
  },
  {
    "compound": "Brc1cc(Oc2cc(Br)c(Br)c(Br)c2Br)c(Br)c(Br)c1Br",
    "target-desc": "Retinoic acid receptor RXR-alpha (Homo sapiens) (UniProt P19793)",
    "group": "label 0"
  },
  {
    "compound": "Oc1c(I)cc(I)c2cccnc12",
    "target-desc": "Retinoic acid receptor RXR-alpha (Homo sapiens) (UniProt P19793)",
    "group": "label 0"
  }
]

====

read-out: Matrix Metallopeptidase 1 (MMP1), MMP1 (gene 4312); test: BSK_MyoF_MMP1: BioMAP Diversity Plus: MyoF Assay for Matrix Metallopeptidase 1 (MMP1) Biomarker Activity (AID 2284268); conditions: primary human lung fibroblasts
The source made the active and inactive calls. How the source made its calls: active means hit-call score of the fitted dose curve at least 0.9, where 1 is the maximum; inactive means score below 0.9.
Labels: TRUE = active, FALSE = inactive

[
  {
    "molecule": "CC(C)CC(=O)CC(C)CC(C)C (centres undefined)",
    "group": "FALSE"
  },
  {
    "molecule": "CCCCCCC(O)CCCCCCCCCCC(=O)OC (centres undefined)",
    "group": "FALSE"
  },
  {
    "molecule": "COC(=O)/C=C\\C(=O)OC",
    "group": "FALSE"
  },
  {
    "molecule": "CC[N+](CC)(CC(=O)Nc1c(C)cccc1C)Cc1ccccc1",
    "group": "FALSE"
  },
  {
    "molecule": "CCCCCCCCCCCCCCCCCC[N+](C)(C)C",
    "group": "TRUE"
  },
  {
    "molecule": "Oc1cccc2ccccc12",
    "group": "TRUE"
  },
  {
    "molecule": "Cc1cc(-n2nc3ccc(Cl)cc3n2)c(O)c(C(C)(C)C)c1",
    "group": "FALSE"
  },
  {
    "molecule": "CN(C)c1ccc(C(c2ccccc2)c2ccc(N(C)C)cc2)cc1",
    "group": "FALSE"
  },
  {
    "molecule": "Cc1cccnc1",
    "group": "FALSE"
  }
]
